test system: T-47D breast; assay: NCI tumour cell line growth inhibition, 48 h; in the data active means GI50 below about 0.43 µM; inactive means the rest
Field 'call' accepts 1 = active, -1 = inactive

compound: C/C(=N\NC(=O)c1ccncc1)c1ccccc1O
target.of.assay: T-47D breast
qualitative.label: -1
--
compound: Oc1ccc(/C=N/Nc2nnc(N/N=C/c3ccc(O)cc3O)c3ccccc23)c(O)c1
target.of.assay: T-47D breast
qualitative.label: 1
--
compound: COc1ccc(C[C@H](N)C(=O)N[C@@H]2[C@@H](CO)OC(n3cnc4c(N(C)C)ncnc43)[C@@H]2O)cc1 (stereo not given in full)
target.of.assay: T-47D breast
qualitative.label: 1
--
compound: N#Cc1c(N)nc(N2CCOCC2)c(C#N)c1-c1ccc(Cl)cc1Cl
target.of.assay: T-47D breast
qualitative.label: -1

Moving on to another compound below.
// param item: CCc1c[nH]c2ncnc(N3CC[C@](N)(CNC(=O)c4ccc(F)cc4F)C3)c12 ; yields the recorded call
1

###

tested on: SN12C renal; assay: NCI tumour cell line growth inhibition, 48 h
Here the recorded GI50 is given for each entry.

Example cases with answers are listed next.
compound: CC(C)=NO.CC(C)=NO.CC(C)=NO.CC(C)=NO.[Ti]
target.of.assay: SN12C renal
GI50: > 100 µM
--
compound: O=C1COc2c(CCNCCN(C(=O)CCNCCc3ccc(Cl)c(Cl)c3)C3CCCCC3)ccc(O)c2N1
target.of.assay: SN12C renal
GI50: 14.7 µM
--
compound: COc1cccc2c(Nc3ccc(C(=O)NCCN4CCNCC4)cc3)cc(-c3ccccc3)nc12
target.of.assay: SN12C renal
GI50: 50.7 µM
--
compound: O=C(c1ccccc1)c1ccc(N2C(=O)C3C4c5ccccc5C(/C=C/C(=O)c5ccccn5)(c5ccccc54)C3C2=O)cc1 (stereo not given)
target.of.assay: SN12C renal
GI50: 2.73 µM

Query N#Cc1c(N/N=C/c2c(Cl)cccc2Cl)nc(N)nc1N1CCCC1 yields GI50 of 4.68 µM

###

system: HCT-15 colon; assay: NCI tumour cell line growth inhibition, 48 h
In this section we review reported GI50 values for a set of compounds.

compound: Cc1cccc(Cc2cnc(NC(=O)CCCOc3ccc(Cl)cc3)s2)c1
observed: 3560 nM

compound: Cn1c(=O)c(-c2c(Cl)cccc2Cl)cc2cnc(Nc3ccc(N4CCOCC4)cc3)nc21
observed: 94.4 nM

Lookup result for O=C(COC(=O)[C@H](C[Se][Se]C[C@H](NC(=O)c1ccc(Br)cc1F)C(=O)OCC(=O)c1ccc(F)cc1)NC(=O)c1ccc(Br)cc1F)c1ccc(F)cc1 ; measured GI50: 1340 nM

So, O=C(Nc1cccc(C(F)(F)F)c1)Nc1cc(S(=O)(=O)NC2CC2)ccc1-c1ccsc1 ? Its GI50 was 3270 nM

So, CC(=O)OC1CCC2(C)C(=CCC3C4CC(CN5CC5)C(=O)C4(C)CCC32)C1 (stereo unspecified) ? Its GI50 was 2270 nM

Record COc1ccc(Cl)cc1Nc1nc(C(F)(F)F)ccc1C(=O)N/N=C/c1ccc(Cl)cc1 . Reported GI50: 2410 nM

###

Some compounds, each annotated with its measured GI50.
system: DU-145 prostate; test: NCI tumour cell line growth inhibition, 48 h

See these solved cases before continuing.
compound: COC(=O)C(NC(=O)c1ccccc1)c1ccc(OC)c(I)c1 (stereo unspecified)
GI50: > 100 µM
//
compound: Brc1ccc2c(c1)-c1ccccc1C1=NCCN12
GI50: 1.09 µM

Measured GI50, O=C(Nc1cccc(C(F)(F)F)c1)Nc1cc(S(=O)(=O)NC2CC2)ccc1-c1ccsc1 : 5.41 µM

Lab note: c1csc(-c2[nH]nc3c2CCc2ccccc2-3)c1 gave GI50 of 23.4 µM

The measured GI50 associated with CCc1c[nH]c2ncnc(N3CC[C@](N)(CNC(=O)c4ccc(F)cc4F)C3)c12 reads 18.3 µM

compound O=C(/C=C/N1CCN(c2cccc(Cl)c2)CC1)c1ccc(Cl)cc1 , GI50 observed: 38.4 µM

###

Listing: GI50 of selected molecules
system: ACHN renal; test: NCI tumour cell line growth inhibition, 48 h

compound.string: Cc1cc(N(CCCl)CCCl)ccc1/C=N\NC(=O)c1cccnc1
target.of.assay: ACHN renal
GI50: 10.7 µM

compound.string: COc1cccc2c(Nc3ccc(C(=O)NCCN4CCNCC4)cc3)cc(-c3ccccc3)nc12
target.of.assay: ACHN renal
GI50: 18.8 µM

What the record says about Cc1c(-c2ccc(N3CCc4cccc(C(=O)Nc5nc6ccccc6s5)c4C3)nc2C(=O)O)cnn1CC12CC3CC(CC(C3)C1)C2 : GI50 is 4.83 µM

Note to self: GI50 recorded for OCCn1c(-c2ccncc2)c(-c2ccc(F)cc2)c2ncccc21 was 24.8 µM

In plain terms, O=C(NCc1cccnc1)c1ccc([N+](=O)[O-])o1 has a documented GI50 of 3.56 µM

###

test system: KM12 colon; test: NCI tumour cell line growth inhibition, 48 h; in the data active means GI50 below about 0.43 µM; inactive means the rest
Respond using exactly one of the listed classes: TRUE for active, FALSE for inactive

# count of solved cases: 5
molecule: Nc1ccc(N)c2c1C(=O)c1cccc([N+](=O)[O-])c1C2=O
qualitative.label: FALSE

molecule: Cc1c(N)nc(C2CC(=O)N2CC(N)C(N)=O)nc1C(=O)NC(C(=O)NC(C)C(O)C(C)C(=O)NC(C(=O)NCCc1nc(-c2nc(C(=O)NCCNCC(C)O)cs2)cs1)C(C)O)C(OC1OC(CO)C(O)C(O)C1OC1OC(CO)C(O)C(OC(N)=O)C1O)c1cnc[nH]1 (configuration not stated)
qualitative.label: FALSE

molecule: CC(=O)OC1CCC2(C)C(=CCC3C4CC(CN5CC5)C(=O)C4(C)CCC32)C1 (configuration not stated)
qualitative.label: FALSE

molecule: O=C(COC(=O)[C@H](C[Se][Se]C[C@H](NC(=O)c1ccc(Br)cc1F)C(=O)OCC(=O)c1ccc(F)cc1)NC(=O)c1ccc(Br)cc1F)c1ccc(F)cc1
qualitative.label: TRUE

molecule: Oc1ccc(CCNc2nc3ccccc3c3[nH]c4ccccc4c23)cc1
qualitative.label: FALSE

Dear colleague, could you share the recorded outcome for COc1ccc(-c2ccc(/C=N/n3c(COc4ccc(Cl)c(C)c4)nn(CN4CCOCC4)c3=S)o2)c([N+](=O)[O-])c1 when you have a moment?
FALSE

// outcome(item) with item = CCC(=C(c1ccc(OCCN(CC)CC)cc1)c1ccc(OCCN(CC)CC)cc1)c1ccc(Cl)cc1
FALSE

###

Recorded TGI, one value per entry.
tested on: A498 renal; experiment: NCI tumour cell line growth inhibition, 48 h

molecule: CCOC(=O)C1(NC(=O)OC(C)(C)C)CCc2[nH]oc(=O)c2C1 (stereo not drawn)
experimental.endpoint: TGI
observed: > 100 µM
//
molecule: COc1ccc(Sc2ccccc2[N+](=O)[O-])cc1
experimental.endpoint: TGI
observed: > 100 µM
//
molecule: CCn1c(SC)nnc1-c1cc2c([nH]c3ccccc32)c(-c2cccc(O)c2)n1
experimental.endpoint: TGI
observed: 10.9 µM
//
molecule: CCN(CCCl)c1ccc(NC(=O)c2cc(C(=O)NCCN(C)C)cc(C(=O)Nc3ccc(N(CC)CCCl)cc3)c2)cc1
experimental.endpoint: TGI
observed: 43.1 µM
//
molecule: Nc1cc(O)c2cc(N=Nc3ccc(N=Nc4ccc(N=Nc5ccc6cc(S(=O)(=O)O)cc(S(=O)(=O)O)c6c5)c5ccccc45)c4cc(S(=O)(=O)O)ccc34)c(S(=O)(=O)O)cc2c1
experimental.endpoint: TGI
observed: > 100 µM

Kindly note the recorded TGI for O=C1Cc2c([nH]c3c(Br)cccc23)-c2ccccc2N1 , which is > 100 µM

GET /value?item= CN1Cc2c(ccc3c2OCO3)[C@@H]2[C@H](O)Cc3cc4c(cc3[C@@H]21)OCO4 &field=TGI returns 6.07 µM

Entry Cc1cc(C2(c3cc(C)c(O)c4ncccc34)OC(=O)c3ccccc32)c2cccnc2c1O — recorded TGI = > 100 µM

###

test system: SK-MEL-2 melanoma; assay: NCI tumour cell line growth inhibition, 48 h
In this section we review reported GI50 values for a set of compounds.

Form: compound = COc1ccc(S(=O)(=O)NCCCNc2nccc(-c3c(-c4ccc(F)cc4)nc4sccn34)n2)cc1 ; GI50 = 12.4 µM

What the record says about CC(=O)OC1CCC2(C)C(=CCC3C4CC(CN5CC5)C(=O)C4(C)CCC32)C1 (stereo not given) : GI50 is 14 µM

Reported GI50 ( N#Cc1c(N/N=C/c2c(Cl)cccc2Cl)nc(N)nc1N1CCCC1 ) = 5.55 µM

Noted for O=C(/C=C/N1CCN(c2cccc(Cl)c2)CC1)c1ccc(Cl)cc1 : its GI50 reads 35.3 µM

Field GI50 (entry O=C(NCc1cccnc1)c1ccc([N+](=O)[O-])o1 ) reads 4.91 µM

Sure, the documented GI50 for CC(=O)Nc1ccc(C(=O)COc2cccc(/C=C3\CCc4ccccc4C3=O)c2)cc1 is 14.8 µM

Summary for this compound, Cn1c(=O)c(-c2c(Cl)cccc2Cl)cc2cnc(Nc3ccc(N4CCOCC4)cc3)nc21 : GI50 is 2.48 µM

Data point: COc1cc(-c2nn(-c3cccc(NC(=O)c4cccc(C(F)(F)F)c4)c3)cc2-c2ccncc2)ccc1Cl ; GI50 = 1.56 µM

Sure, the documented GI50 for Oc1ccc(CCNc2nc3ccccc3c3[nH]c4ccccc4c23)cc1 is 1.73 µM

Entry Oc1ccc(/C=N/Nc2nnc(N/N=C/c3ccc(O)cc3O)c3ccccc23)c(O)c1 — recorded GI50 = 0.674 µM
